Where do these numbers come from? They come from paper PMC5540273.

Each entry below lists one item and its recorded %Inh value.
- System: IRAK3
- MEASUREMENT_CONTEXT: concentration: 1 μM, replicates: in singlicate; n = 1;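 note: KINOMEscan kinase panel screen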
Give the quantity in %, number only.

[
  {
    "COMPOUND": "O=C(O)C(F)(F)F.O=c1[nH]ccc2nc(N[C@@H]3CCNC3)nc(Nc3ccc4c(c3)S(=O)(=O)CC4)c12",
    "SCALE_UNIT": "%",
    "%Inh": 0
  },
  {
    "COMPOUND": "Cc1nn2c(=O)cc(N3CCO[C@H](C)C3)nc2n1Cc1cccc(Cl)c1Cl",
    "SCALE_UNIT": "%",
    "%Inh": 0
  },
  {
    "COMPOUND": "Cc1ccc(NC(=O)c2ccnc(N3CCCCC3)c2)cc1-c1ccc(C(=O)NCC2CC2)cc1",
    "SCALE_UNIT": "%",
    "%Inh": 0
  },
  {
    "COMPOUND": "Cc1ccc(Nc2ccnc(Nc3ccc(C)c(F)c3)n2)cc1O.Cl",
    "SCALE_UNIT": "%",
    "%Inh": 76
  },
  {
    "COMPOUND": "Cc1ccc(O)cc1Nc1ccnc2ccc(C(C)(C)C)cc12",
    "SCALE_UNIT": "%",
    "%Inh": 0
  }
]

Entry under review: CN(c1ccc2c(c1)nc(NCc1ccccc1)n2C)c1ccnc(Nc2ccc(CS(C)(=O)=O)cc2)n1.Cl . Reported %Inh?
0

// query: Cl.Cl.NC(CNC(=O)c1cc(Br)c(-c2ccnc3[nH]ccc23)s1)c1ccccc1 (centres unmarked)
55

// query: COc1cc(Nc2ccnc3cc(-c4ccncc4)ccc23)cc(OC)c1OC.Cl
0

====

- Test system: LATS2
- MEASUREMENT_CONTEXT: concentration: 1 μM, replicates: in singlicate; n = 1
QUANTITY_KIND: %Inh (%)
Give the quantity in %, number only.

Please review the following examples before continuing.
[
  {
    "COMPOUND_STRUCTURE_STRING": "CCOc1nccc(-c2c(-c3ccc(F)cc3)ncn2C2CCNCC2)n1",
    "MEASURED_TARGET": "LATS2",
    "QUANTITY_KIND": "%Inh",
    "SCALE_UNIT": "%",
    "VALUE": 29
  },
  {
    "COMPOUND_STRUCTURE_STRING": "CS(=O)(=O)c1cccc(CNc2nc(Nc3ccc4c(c3)CCC(=O)N4)ncc2C(F)(F)F)c1",
    "MEASURED_TARGET": "LATS2",
    "QUANTITY_KIND": "%Inh",
    "SCALE_UNIT": "%",
    "VALUE": 0
  },
  {
    "COMPOUND_STRUCTURE_STRING": "CN(c1ccc2c(c1)nc(NCc1ccccc1)n2C)c1ccnc(Nc2ccc(CS(C)(=O)=O)cc2)n1.Cl",
    "MEASURED_TARGET": "LATS2",
    "QUANTITY_KIND": "%Inh",
    "SCALE_UNIT": "%",
    "VALUE": 0
  }
]

Entry under review: CNc1nccc(-c2ccc3c(N)n[nH]c3c2)n1 . Reported %Inh?
17

====

- Tested on: SGK2
- MEASUREMENT_CONTEXT: concentration: 1 μM, replicates: in singlicate; n = 1
QUANTITY_KIND: %Inh (%)
Give the quantity in %, number only.

Please provide the recorded %Inh for Nc1ncnc2scc(-c3ccc(NC(=O)Cc4cc(F)ccc4F)cc3)c12.O=C(O)C(F)(F)F , tested on SGK2.
27

// query: Fc1cc(Cl)ccc1Nc1ccnc2cc(-c3ccc(CN4CCSCC4)o3)ccc12
0

// query: Cl.N#CCc1ccc(Nc2nccc(Nc3ccc(Oc4ccccc4)cc3)n2)cc1
0

// query: Nc1ncc(-c2cn[nH]c2)c2scc(-c3ccc4c(c3)CCN4C(=O)Cc3ccccc3)c12
0

// query: COC(=O)Nc1nc2ccc(Oc3ccc(NC(=O)Nc4cc(C(F)(F)F)ccc4F)cc3)cc2[nH]1.Cl
8

====

- Tested on: MAP4K4
- MEASUREMENT_CONTEXT: concentration: 1 μM, replicates: in singlicate; n = 1
Each entry below lists one item and its recorded %Inh value.
Give the quantity in %, number only.

Please review the following examples before continuing.
[
  {
    "MOLECULE": "Cc1cc(-c2c(-c3ccc(F)cc3)ncn2CCCN2CCOCC2)nc(N)n1",
    "%Inh [%]": 0
  },
  {
    "MOLECULE": "Cc1nn2c(=O)cc(N3CCO[C@H](C)C3)nc2n1Cc1cccc(Cl)c1Cl",
    "%Inh [%]": 17
  },
  {
    "MOLECULE": "Cl.Cl.NC(CNC(=O)c1cc(Br)c(-c2ccnc3[nH]ccc23)s1)c1ccccc1 (stereo not shown)",
    "%Inh [%]": 53
  }
]

Entry under review: COC(=O)Nc1nc2ccc(Oc3ccc(CC(=O)Nc4cc(C(F)(F)F)ccc4F)cc3)cc2[nH]1 . Reported %Inh?
0

====

- Test system: VRK2
- MEASUREMENT_CONTEXT: concentration: 1 μM, replicates: in singlicate; n = 1
Each entry below lists one item and its recorded %Inh value.
Give the quantity in %, number only.

[
  {
    "COMPOUND": "CC(C)c1nc(-c2cccc(NS(=O)(=O)c3c(F)cccc3F)c2)c(-c2ccnc(Nc3ccc(N4CCOCC4)nc3)n2)s1.Cl",
    "MEASURED_TARGET": "VRK2",
    "%Inh, %": 0
  },
  {
    "COMPOUND": "Cn1cc(-c2cnc(N)c3c(-c4ccc5c(c4)CCN5C(=O)Cc4ccccc4)csc23)cn1",
    "MEASURED_TARGET": "VRK2",
    "%Inh, %": 0
  },
  {
    "COMPOUND": "COc1cccc(CC(=O)N2CCc3cc(-c4cn(C)c5ncnc(N)c45)ccc32)c1",
    "MEASURED_TARGET": "VRK2",
    "%Inh, %": 0
  },
  {
    "COMPOUND": "CN(c1ccc(NC(=O)Nc2cccc(Cl)c2)cc1)c1ccnc(N)n1.Cl",
    "MEASURED_TARGET": "VRK2",
    "%Inh, %": 0
  }
]

Entry under review: Cc1ccccc1CC(=O)N1CCc2cc(-c3cn(C)c4ncnc(N)c34)ccc21 . Reported %Inh?
0

====

Each entry below lists one item and its recorded %Inh value.
- System: RPS6KA4(Kin.Dom.1-N-terminal)
- MEASUREMENT_CONTEXT: concentration: 1 μM, replicates: in singlicate; n = 1
Give the quantity in %, number only.

[
  {
    "COMPOUND_STRUCTURE_STRING": "COC(=O)Nc1nc2cc(Oc3ccc(NC(=O)Nc4cccc(SC)c4)cc3)ccc2[nH]1.Cl",
    "SCALE_UNIT": "%",
    "%Inh": 3
  },
  {
    "COMPOUND_STRUCTURE_STRING": "Cc1ccc(O)cc1Nc1ccnc2cc(-c3ccc(CN4CCCCC4)o3)ccc12",
    "SCALE_UNIT": "%",
    "%Inh": 0
  },
  {
    "COMPOUND_STRUCTURE_STRING": "CCOc1nccc(-c2c(-c3ccc(F)cc3)ncn2C2CCNCC2)n1",
    "SCALE_UNIT": "%",
    "%Inh": 8
  },
  {
    "COMPOUND_STRUCTURE_STRING": "COC(=O)Nc1nc2ccc(Oc3ccc(CC(=O)Nc4cc(C(F)(F)F)ccc4F)cc3)cc2[nH]1",
    "SCALE_UNIT": "%",
    "%Inh": 0
  }
]

API: the following record is the query input.
Please provide the recorded %Inh for COC(=O)Nc1nc2ccc(Oc3ccc(NC(=O)Nc4cc(C(F)(F)F)ccc4F)cc3)cc2[nH]1.Cl , tested on RPS6KA4(Kin.Dom.1-N-terminal).
15

====

- System: DYRK1B
- MEASUREMENT_CONTEXT: concentration: 1 μM, replicates: in singlicate; n = 1
Each entry below lists one item and its recorded %Inh value.
Give the quantity in %, number only.

Please review the following examples before continuing.
[
  {
    "COMPOUND_STRUCTURE_STRING": "CCNC(=O)/C=C/c1n[nH]c2cc(Sc3ccccc3C(=O)NC)ccc12",
    "MEASURED_TARGET": "DYRK1B",
    "SCALE_UNIT": "%",
    "VALUE": 0
  },
  {
    "COMPOUND_STRUCTURE_STRING": "Cc1ccc(NC(=O)c2ccc(Cl)c(Cl)c2)cc1-c1ccc(C(=O)Nc2ccncc2)cc1",
    "MEASURED_TARGET": "DYRK1B",
    "SCALE_UNIT": "%",
    "VALUE": 6
  },
  {
    "COMPOUND_STRUCTURE_STRING": "Cl.O=C(Nc1ccc(Oc2ccc3[nH]c(NC(=O)c4ccco4)nc3c2)cc1)Nc1cc(C(F)(F)F)ccc1F",
    "MEASURED_TARGET": "DYRK1B",
    "SCALE_UNIT": "%",
    "VALUE": 6
  },
  {
    "COMPOUND_STRUCTURE_STRING": "CN(c1ccc(F)c(NC(=O)c2cccc(OC(C)(C)C#N)c2Cl)c1)c1ccc2nc(NC(=O)C3CC3)sc2n1",
    "MEASURED_TARGET": "DYRK1B",
    "SCALE_UNIT": "%",
    "VALUE": 46
  },
  {
    "COMPOUND_STRUCTURE_STRING": "COc1ccc(C2=C(Nc3cccc(O)c3)C(=O)NC2=O)cc1",
    "MEASURED_TARGET": "DYRK1B",
    "SCALE_UNIT": "%",
    "VALUE": 100
  }
]

Please provide the recorded %Inh for CC(C)c1nc(-c2ccc(F)c(NS(=O)(=O)c3c(F)cccc3F)c2)c(-c2ccnc(Nc3ccc(N4CCOCC4)nc3)n2)s1 , tested on DYRK1B.
0

// query: O=C1NC(=O)C(c2ccccc2Cl)=C1Nc1cccc(Cl)c1
0

// query: CN(c1ccc2c(c1)nc(NCc1ccccc1)n2C)c1ccnc(Nc2ccc(CS(C)(=O)=O)cc2)n1.Cl
0
